- study target: T1, AAV8
- T1 construct: also called adeno-associated virus serotype 8
- assay: SPR, AAV on CM5 chip;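 note: surface plasmon resonance with AAV amine-coupled to the chip as ligand, nanobodies injected as analyte over a concentration series, rate constants and affinity fitted from binding curves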
recorded endpoint: koff (s⁻¹)

>>> val("A4-006 (VHH) VHH: VQLQESGGGLVQPGGSLRLSCAASGRHFSINTMGWYRQAPGKQRELVAAVTRGGSTNYAGSVKGRFTISRDNAKNTVYLQMNSLRPEDTAVYYCHIDEVRQSSWTTSNIWGQGTQVTVSS")
0.00224
>>> val("A4-012 (VHH) VHH: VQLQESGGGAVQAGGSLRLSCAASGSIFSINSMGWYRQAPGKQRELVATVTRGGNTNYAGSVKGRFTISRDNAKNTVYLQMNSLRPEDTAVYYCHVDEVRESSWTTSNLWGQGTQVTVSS")
0.00417
>>> val("A4-044 (VHH) VHH: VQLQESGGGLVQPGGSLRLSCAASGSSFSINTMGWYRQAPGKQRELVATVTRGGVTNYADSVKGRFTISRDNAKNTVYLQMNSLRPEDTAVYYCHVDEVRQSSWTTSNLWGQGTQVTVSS")
0.00024
>>> val("A4-007 (VHH) VHH: VQLQESGGGLVQAGGSLRLSCAASGRHFSINTMGWYRQAPGKQRELVAAVTRGGSTNYAGSVKGRFTISRDNAKNTVYLQMNSLRPEDTAVYYCHIDEVRQSSWTTSNIWGQGTQVTVSS")
0.00367
>>> val("A4-003 (VHH) VHH: VQLQESGGGLVQPGGSLRLSCVASGRSFSINTMGWYRQAPGKQRELVAAVTRGGSTNYAGSVKGRFTISRDNAKNTVYLQMNSLRPEDTAVYYCHIDEVRQSSWTTSNIWGQGTQVTVSS")
0.000277
>>> val("A4-022 (VHH) VHH: VQLQESGGGLVQPGGSLRLSCAASGSGFSINTMGWYRQAPGKQRELVATVTRDGSTNYADFVKGRFTISRDNAKNTVYLQMNSLRPEDTAVYYCHLDEVRESSWTTSNLWGQGTQVTVSS")
"6.2e-05"
>>> val("A4-024 (VHH) VHH: VQLQESGGGLVQPGGSLRLSCAASGSNFRINTMGWYRQAPGKQRELVATVTRGGSTNYADSVKGRFTISRDNPKNTVYLQMNSLRPEDTAVYYCHVDEVRESSWTTSNLWGQGTQVTVSS")
0.00148
>>> val("A4-040 (VHH) VHH: VQLQESGGGLVQPGGSLRLSCAASGRIFSINTMGWYRQAPGKQRELVATVTRGGSTNYADSVKGRFTISRDNAKNTVYLQMNSLRPEDTAVYYCHVDEIRQSSWTTSNLWGQGTQVTVSS")
0.00028

Cited source: patent US20260193326A1
